pIC50: −log10 of the molar value.
Please find below pIC50 data on 11-beta-hydroxysteroid dehydrogenase 1 (Homo sapiens, UniProt P28845) compiled from the literature.
measured.quantity: pIC50

Guide cases for pIC50, answers given:
[[record]]
compound = "O=C(N[C@H]1C2CC3CC1C[C@](O)(C3)C2)N1CCCc2ccccc21"
subject_of_test = "11-beta-hydroxysteroid dehydrogenase 1 (Homo sapiens, UniProt P28845)"
measured_quantity = "pIC50"
assay_result = 9.15

[[record]]
compound = "Cc1n[nH]c(C)c1S(=O)(=O)Nc1cccc(C(=O)NC2C3CC4CC2CC(C(N)=O)(C4)C3)c1 (centres unmarked)"
subject_of_test = "11-beta-hydroxysteroid dehydrogenase 1 (Homo sapiens, UniProt P28845)"
measured_quantity = "pIC50"
assay_result = 7.29

[[record]]
compound = "NC(=O)CCC12CC3CC(C1)C(NC(=O)C1(CNS(=O)(=O)c4ccccc4F)CC1)C(C3)C2 (centres unmarked)"
subject_of_test = "11-beta-hydroxysteroid dehydrogenase 1 (Homo sapiens, UniProt P28845)"
measured_quantity = "pIC50"
assay_result = 7.52

[[record]]
compound = "C[C@H](NC1=NS(=O)(=O)C(C)(c2ccccc2)C(C)(C)O1)c1ccccc1F (some centres unmarked)"
subject_of_test = "11-beta-hydroxysteroid dehydrogenase 1 (Homo sapiens, UniProt P28845)"
measured_quantity = "pIC50"
assay_result = 8.15


(1) CC1(C)OC(N[C@@H](CCO)c2ccccc2F)=NS(=O)(=O)C1c1ccc(-c2ccccc2)nc1 (some centres unmarked)
(2) NC(=O)C12CC3CC(C1)C(NC(=O)C1(CNC(=O)N4CCCc5ccccc54)CC1)C(C3)C2 (centres unmarked)
(3) CC1(C)OC(N[C@@H](CCO)c2ccccc2)=NS(=O)(=O)C1c1cccc(O)c1 (some centres unmarked)
(4) CN(C(=O)CCCOc1ccc(Cl)cc1Cl)C1CCCC(CO)C1 (centres unmarked)
(5) NC(=O)C12CC3CC(C1)C(NC(=O)C1(CNS(=O)(=O)c4cc(F)cc(F)c4)CC1)C(C3)C2 (centres unmarked)
List these items ordered by pIC50, big to small. Please express your ranking as an ordered list of the labels.
4, 1, 3, 2, 5

---

pIC50: −log10 of the molar value.
Please find below pIC50 data on 11-beta-hydroxysteroid dehydrogenase 1 (Homo sapiens) compiled from the literature.
measured.quantity: pIC50

[[record]]
molecule = "CC(C)(C)c1ccc(S(=O)(=O)N2CCCN(C3CCCC3)CC2)cc1"
assay_result = 7.52

[[record]]
molecule = "CC1(C)OC(N[C@@H](CCO)c2ccccc2F)=NS(=O)(=O)C1c1ccc(NC2CCN(C3CC3)CC2)cc1 (stereo partly shown)"
assay_result = 7.19

[[record]]
molecule = "CCOC(C)c1ccc(S(=O)(=O)N2CC3(C)CC2CC(C)(C)C3)cc1 (stereo not shown)"
assay_result = 8.00

[[record]]
molecule = "CN(C(=O)N1CCCc2ccccc21)[C@H]1C2CC3CC1C[C@](O)(C3)C2"
assay_result = 8.02

[[record]]
molecule = "COC(=O)NC(C)(C)/C=C/n1ncc(C(=O)N[C@H]2C3CC4CC2C[C@](OC(N)=O)(C4)C3)c1-c1ccccc1"
assay_result = 7.06

[[record]]
molecule = "NC(=O)C12CC3CC(C1)C(NC(=O)c1cccc(NS(=O)(=O)c4c(F)cccc4F)c1)C(C3)C2 (stereo not shown)"
assay_result = 7.89


(a) CC1(C)OC(N[C@@H](CCO)c2cc(F)ccc2F)=NS(=O)(=O)C1c1ccc(-c2ccccc2)cc1 (stereo partly shown)
(b) Cc1cccc(F)c1S(=O)(=O)N(C)CC1(C(=O)NC2C3CC4CC2CC(C(N)=O)(C4)C3)CC1 (stereo not shown)
(c) CC1(C)OC(N[C@@H](CCO)c2ccccc2F)=NS(=O)(=O)C1c1ccc(C2CCN(CCO)CC2)cc1 (stereo partly shown)
(d) C[C@H](NC1=NS(=O)(=O)C(C)(c2cccc(Br)c2)C(C)(C)O1)c1ccccc1F (stereo partly shown)
(e) Cn1ccc(-c2ccc([C@H](C3CC3)N3CC[C@](CC(C)(C)O)(c4ccccc4)OC3=O)cc2)cc1=O
List these items ordered by pIC50, big to small. Please express your ranking as an ordered list of the labels.
b, d, a, c, e
